Target: ETS1 (Homo sapiens, UniProt P14921 1-441)
Sequence: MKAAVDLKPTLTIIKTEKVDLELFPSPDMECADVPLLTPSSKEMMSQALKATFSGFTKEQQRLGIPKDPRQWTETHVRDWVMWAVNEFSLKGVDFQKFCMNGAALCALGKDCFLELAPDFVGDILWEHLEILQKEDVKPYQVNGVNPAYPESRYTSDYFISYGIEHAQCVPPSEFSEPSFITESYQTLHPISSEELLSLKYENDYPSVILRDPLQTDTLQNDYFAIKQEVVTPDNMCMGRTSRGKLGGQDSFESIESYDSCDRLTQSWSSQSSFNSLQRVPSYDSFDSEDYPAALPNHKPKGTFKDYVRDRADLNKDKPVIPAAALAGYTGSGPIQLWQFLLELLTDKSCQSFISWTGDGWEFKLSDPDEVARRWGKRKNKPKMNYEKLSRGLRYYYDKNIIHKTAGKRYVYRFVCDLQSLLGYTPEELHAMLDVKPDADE
Assay: custom PBM; custom protein-binding microarray; buffer, salt, pH and temperature not stated; high values mean tight binding
Details: dsDNA, one strand shown
The full ranking holds about 1,300 sequences; the median of “log fluorescence intensity” is about 8.3, and the highest 2% start at about 12. This is one part of a sample in which the highest values are shown more often than they occur.
TEST_READOUT: binding signal

Supply binding signal value. Item: CGGAAGTGTCGTAAACGTCGGATTTCCGGTTCTTCTGTCTTGATTCGCTTGACGCTGCTG 12.5 log fluorescence intensity

Supply binding signal value. Item: CGGAAGTGTCGTAAACGTCGGAAATCCGGTTCTTCTGTCTTGATTCGCTTGACGCTGCTG 9.71 log fluorescence intensity

Supply binding signal value. Item: CGGAAGTGTCGTAAACGTCGGATCTCCGGTTCTTCTGTCTTGATTCGCTTGACGCTGCTG 8.47 log fluorescence intensity

Supply binding signal value. Item: TCCGGCTACCACCTCCACCCACTTCAGGCCTTGTAGGTCTTGATTCGCTTGACGCTGCTG 8.32 log fluorescence intensity

Supply binding signal value. Item: CGGAAGTGTCGGAAACGTCGGATATCCGGTTCTTCTGTCTTGATTCGCTTGACGCTGCTG 12.8 log fluorescence intensity
